Collected literature values of pIC50 measured for Dual specificity protein kinase TTK (Homo sapiens, UniProt P33981).
pIC50: −log10 of the molar value.
TEST READOUT: pIC50

Cc1nc(C)c(-c2ccc(Nc3cc4[nH]c(-c5cnn(C)c5)cc4cn3)c(Cl)c2)s1: 6.94

[A] Cn1cc(-c2cc3cnc(Nc4ccc(-c5cncn5C)cc4Cl)cc3n2C2CCCC2)cn1
[B] COc1ccc(Oc2ccc(NC(=O)c3c(C)nsc3Nc3cnc4ccccc4n3)cn2)cc1
[C] CCc1cc(-c2cnn(C)c2)ccc1Nc1ncc2ccnc(NCC(C)(C)C)c2n1
Q) Please rank these compounds by pIC50 in descending order. // list labels; follow requested order
A) A, C, B
